- STUDY_SYSTEM: PcSRB (rPcSRB)
- Construct: recombinant, pET-32a(+) BamHI/XhoI, His-tagged, tag kept
- ASSAY_DETAILS: microscale thermophoresis, RED-tris-NTA labelled protein
- CONDITION_CONTEXT: PBS-T; His-tagged protein labelled, ligand unlabelled
ASSAY_READOUT: Kd (µM)
Just the number in µM, nothing appended.

Entry CC(C)CCC[C@@H](C)[C@H]1CC[C@H]2[C@@H]3CC=C4C=CCC[C@]4(C)[C@H]3CC[C@]12C , Kd reported as 4.5

Hello, the source for this data is paper PMC11915803, in case you need it.
